- Test system: Huh-7 cells containing the self-replicating, subgenomic HCV replicon
- assay.info: HCV replicon assay (luciferase reporter)
- Assay type: cell-based
- condition: Hepatitis C virus, Huh-7, 72 h
experimental.endpoint: EC50

# get_value(readout='EC50', item= C[C@H](NP(=S)(OC[C@H]1O[C@@H](n2ccc(=O)[nH]c2=O)[C@](C)(O)[C@@H]1O)Oc1ccccc1)C(=O)OC1CCCCC1 (stereo partly shown) )
< 1000 nM

Please report the recorded EC50 for CC(C)OC(=O)[C@H](Cc1ccccc1)NP(=S)(OC[C@H]1O[C@@H](n2ccc(=O)[nH]c2=O)[C@](C)(O)[C@@H]1O)Oc1ccccc1 (stereo partly shown) .
1000 to 10000 nM

Endpoint output: EC50 of CC(C)OC(=O)[C@H](C)NP(=S)(OC[C@H]1O[C@@H](n2ccc(=O)[nH]c2=O)[C@](C)(O)[C@@H]1OC(=O)C(C)C)Oc1ccccc1 (stereo partly shown) . Value?
< 1000 nM

I would be grateful if you could share the reported EC50 for COc1nc(N)nc2c1ncn2[C@@H]1O[C@H](COP(=S)(NC(C)C(=O)OC(C)C)Oc2ccccc2)C(O)C1(C)O (stereo partly shown) .
< 1000 nM

Entry under review: CC(C)C[C@H](NP(=S)(OC[C@H]1O[C@@H](n2ccc(=O)[nH]c2=O)[C@](C)(O)[C@@H]1O)Oc1ccccc1)C(=O)OC(C)C (stereo partly shown) . Reported EC50?
1000 to 10000 nM

I would be grateful if you could share the reported EC50 for C=CCNc1nc(N)nc2c1ncn2[C@@H]1O[C@H](COP(=S)(N[C@@H](C)C(=O)OC(C)C)Oc2ccccc2)[C@@H](O)[C@@]1(C)O (stereo partly shown) .
< 1000 nM

Consider the molecule shown here: CC(C)OC(=O)[C@H](C)NP(=S)(OC[C@H]1O[C@@H](n2cnc3c(N)ncnc32)[C@](C)(O)[C@@H]1O)Oc1cccc2ccccc12 (stereo partly shown) What is its recorded EC50?
< 1000 nM

May I ask what EC50 has been recorded for CC(C)OC(=O)[C@H](C)NP(=S)(OC[C@H]1O[C@@H](n2ccc(=O)[nH]c2=O)[C@](C)(O)[C@@H]1O)Oc1cccc2ncccc12 (stereo partly shown) ?
< 1000 nM

Which EC50 reading was recorded for the molecule CC(C)OC(=O)[C@H](C)NP(=S)(OC[C@H]1O[C@@H](n2ccc(=O)[nH]c2=O)[C@](C)(F)[C@@H]1O)Oc1ccccc1 (stereo partly shown) ?
1000 to 10000 nM

Please look up its EC50: COc1nc(N)nc2c1ncn2[C@@H]1O[C@H](COP(=S)(NC(C)C(=O)OC(C)C)Oc2ccccc2)C(O)C1(C)F (stereo partly shown)
< 1000 nM

What measured EC50 goes with C[C@H](NP(=S)(OC[C@H]1O[C@@H](n2ccc(=O)[nH]c2=O)[C@](C)(F)[C@@H]1O)Oc1ccccc1)C(=O)OCC(C)(C)C (stereo partly shown) ?
< 1000 nM

Data request, read-out EC50, for CC(C)OC(=O)[C@H](C)NP(=S)(OC[C@H]1O[C@@H](n2ccc(=O)[nH]c2=O)[C@](C)(O)[C@@H]1O)Oc1ccccc1 (stereo partly shown)
< 1000 nM

Entry under review: COc1nc(N)nc2c1ncn2[C@@H]1O[C@H](COP(=S)(N[C@@H](C)C(=O)OCC(C)(C)C)Oc2cccc3ccccc23)[C@@H](O)[C@@]1(C)O (stereo partly shown) . Reported EC50?
< 1000 nM
